Can you tell me PBM binding z-score for the items I'm about to list?
System: VDR homodimer (NR concentration 270 nM)
methodSummary: PBM binding z-score (relative to random genomic background probes); higher = stronger binding; sequences stand for … in GC…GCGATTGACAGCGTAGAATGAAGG

Please review the following examples before continuing.
>  <biopolymerSequence>
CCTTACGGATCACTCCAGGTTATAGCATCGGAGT

>  <measuredTarget>
VDR homodimer (NR concentration 270 nM)

>  <PBM binding z-score>
0.677

$$$$
>  <biopolymerSequence>
GCGACCGGGGCATCAGCAGGTTACCATAACTTAA

>  <measuredTarget>
VDR homodimer (NR concentration 270 nM)

>  <PBM binding z-score>
-0.185

$$$$
>  <biopolymerSequence>
CCTATTAGTTGCCCATAAGGGCAACCGAAGCTCG

>  <measuredTarget>
VDR homodimer (NR concentration 270 nM)

>  <PBM binding z-score>
0.922

$$$$
>  <biopolymerSequence>
CGTCGAAGGTCAGAGAGGTCAGTGAATGCCGAGT

>  <measuredTarget>
VDR homodimer (NR concentration 270 nM)

>  <PBM binding z-score>
5.14

$$$$
>  <biopolymerSequence>
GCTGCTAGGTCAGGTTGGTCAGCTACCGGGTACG

>  <measuredTarget>
VDR homodimer (NR concentration 270 nM)

>  <PBM binding z-score>
0.476

$$$$

Would you mind giving PBM binding z-score for every sequence in the list below?
1. AGAATGAGGTTATACGTAGATCAAGGAAGAAAGT
2. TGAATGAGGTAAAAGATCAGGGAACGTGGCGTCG
3. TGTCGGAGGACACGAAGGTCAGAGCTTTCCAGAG
4. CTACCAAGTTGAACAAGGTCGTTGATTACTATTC
5. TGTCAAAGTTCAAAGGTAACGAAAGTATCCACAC

1: 0.854; 2: -0.398; 3: 0.981; 4: 3.58; 5: 4.73

Would you mind giving PBM binding z-score for every sequence in the list below?
1. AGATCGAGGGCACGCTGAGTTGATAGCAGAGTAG
2. ATCTCTAGGTGACCAAGTTCAGTGAATGCCGAAC

1: 1.65; 2: 2.22

----------
Test system: PPARg:RXRa 30nM:10nM, anti-RXR (NR concentration 30 nM, RXRa partner concentration 10 nM)
methodSummary: PBM binding z-score (relative to random genomic background probes); higher = stronger binding; sequences stand for … in GC…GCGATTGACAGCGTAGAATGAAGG
Binning rule for recorded PBM binding z-score: LOW = under 0.4, MEDIUM = from 0.4 up to 2, HIGH = 2 and over

Just checking, what class would you give "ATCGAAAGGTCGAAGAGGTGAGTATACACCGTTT" here? MEDIUM

Just checking, what class would you give "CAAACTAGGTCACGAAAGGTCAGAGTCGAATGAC" here? HIGH

Just checking, what class would you give "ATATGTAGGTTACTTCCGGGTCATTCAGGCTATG" here? HIGH

Just checking, what class would you give "CGTCCAAGGTCAGCACGTCAGTGAAAGCGACGTG" here? MEDIUM

Just checking, what class would you give "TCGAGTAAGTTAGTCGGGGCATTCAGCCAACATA" here? MEDIUM

Just checking, what class would you give "ACTATTAGTTGGCTTAGGGCAACCGATACGACGC" here? LOW

Just checking, what class would you give "AGTCAAAGTTCATCGAGGTAACGTAAGATATGCT" here? HIGH

Just checking, what class would you give "GCATATAGGTAATACATGGTGAAAGTCCGATTGT" here? LOW

Just checking, what class would you give "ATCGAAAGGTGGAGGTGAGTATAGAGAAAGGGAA" here? LOW

Just checking, what class would you give "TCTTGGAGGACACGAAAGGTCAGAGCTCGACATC" here? HIGH
